studySystem: recombinant soluble homotrimeric HA of A/California/4/09 (H1N1) (Influenza A virus A/California/04/2009(H1N1))
protocolDescription: HA microarray, BCC supernatant
testContext: remark: other sources report otherwise
Label rule met for high-side Trimeric HA Binding: RLU (at or above 30000 RLU) and rule not met for low-side Trimeric HA Binding: RLU (below it).

Reference set (3 entries):
TCN-552 (5249_I23) (antibody, V domains shown) VH: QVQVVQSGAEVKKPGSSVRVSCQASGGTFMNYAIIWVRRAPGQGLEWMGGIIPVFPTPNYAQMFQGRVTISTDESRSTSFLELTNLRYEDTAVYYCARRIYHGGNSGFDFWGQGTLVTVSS VL: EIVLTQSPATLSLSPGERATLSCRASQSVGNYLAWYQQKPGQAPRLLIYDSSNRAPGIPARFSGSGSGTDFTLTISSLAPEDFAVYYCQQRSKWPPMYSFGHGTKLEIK	rule met
TCN-540 (5060_F05) (antibody, V domains shown) VH: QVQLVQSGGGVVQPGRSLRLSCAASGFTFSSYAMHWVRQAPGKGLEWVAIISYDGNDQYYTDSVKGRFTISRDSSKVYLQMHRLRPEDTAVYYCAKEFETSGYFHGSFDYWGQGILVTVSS VL: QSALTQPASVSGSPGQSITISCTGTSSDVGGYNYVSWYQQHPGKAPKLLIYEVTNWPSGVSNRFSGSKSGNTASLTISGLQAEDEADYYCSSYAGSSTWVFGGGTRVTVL	rule not met
TCN-527 (5086_C06) (antibody, V domains shown) VH: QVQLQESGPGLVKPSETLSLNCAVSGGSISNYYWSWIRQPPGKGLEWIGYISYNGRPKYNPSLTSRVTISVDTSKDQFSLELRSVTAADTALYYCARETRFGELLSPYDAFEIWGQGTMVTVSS VL: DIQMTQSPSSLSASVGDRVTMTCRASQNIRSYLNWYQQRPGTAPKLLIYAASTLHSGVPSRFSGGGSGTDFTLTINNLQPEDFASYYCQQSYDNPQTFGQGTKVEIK	rule not met

Input: Decide: is the reported value of Trimeric HA Binding: RLU for TCN-536 (5095_N01) (antibody, V domains shown) VH: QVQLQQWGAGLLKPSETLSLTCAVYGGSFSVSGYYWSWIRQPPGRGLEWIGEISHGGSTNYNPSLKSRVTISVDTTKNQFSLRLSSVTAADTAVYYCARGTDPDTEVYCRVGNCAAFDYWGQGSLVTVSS VL: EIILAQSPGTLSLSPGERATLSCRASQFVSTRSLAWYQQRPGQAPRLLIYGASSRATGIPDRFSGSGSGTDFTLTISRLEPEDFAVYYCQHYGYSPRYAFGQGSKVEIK equal to or greater than 30000 RLU?
Output: rule not met

Input: Reported Trimeric HA Binding: RLU reaches at least 30000 RLU for TCN-553 (5261_C18) (antibody, V domains shown) VH: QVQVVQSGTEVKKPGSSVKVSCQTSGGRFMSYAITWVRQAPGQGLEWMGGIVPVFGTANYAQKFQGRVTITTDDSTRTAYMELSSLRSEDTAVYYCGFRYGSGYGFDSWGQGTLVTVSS VL: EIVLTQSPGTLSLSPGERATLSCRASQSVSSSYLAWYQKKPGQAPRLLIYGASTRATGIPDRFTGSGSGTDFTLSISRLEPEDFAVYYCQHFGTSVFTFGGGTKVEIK ?
Output: rule not met
